- test_target: T1, human NKp30-his protein (KACTUS; Cat: NKP-HM430) (human, UniProt O14931 19-135, limits assumed)
- T1 construct: Bought protein (KACTUS NKP-HM430); not shown: His tag
- T1 sequence (looked up): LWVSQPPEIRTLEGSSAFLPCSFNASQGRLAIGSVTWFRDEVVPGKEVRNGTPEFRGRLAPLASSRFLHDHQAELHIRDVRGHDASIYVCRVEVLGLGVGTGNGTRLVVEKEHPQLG
- protocol_notes: ELISA, Human-NKp30-His coated at 0.2 µg/mL, antibody from 10 µg/mL in 3-fold steps, goat anti-human Fc, OD450 (Example 11)
Param label: returns 1 (yes) when EC50 < 0.01 µg/mL, returns 0 (no) otherwise, including exact equality.

binder	class_name
antibody 18-hu3 (antibody, V domains shown, also called humanized antibody 18-hu3) VH: EVQLVESGGGLVQPGGSLRLSCAASGIRFSIANMGWYRQAPGKLHEMVAGITSDGFTNYADSVKGRFTISRDNSKNTLYLQMNSLRAEDTAVYYCASFPTRHYWGQGTLVTVSS	1 (yes)
antibody 10-hu1 (antibody, V domains shown) VH: EVQLVESGGGLVQPGGSLRLSCAASGITFSRSVMGWFRQAPGKLRELVSGITSDDNTDYADSVKGRFTISRDNSKNTLYLQMNSLRAEDTAVYYCARLPDSRLGWGQGTLVTVSS	0 (no)
antibody 10-hu3 (antibody, V domains shown) VH: EVQLVESGGGLVQPGGSLRLSCAASGITFSRSVMGWFRQAPGKLRELVAGITSDDNTDYADSVKGRFTISRDNSKNTLYLQMNSLRAEDTAVYYCAILPDSRLGWGQGTLVTVSS	0 (no)
antibody 10-hu4 (antibody, V domains shown) VH: EVQLVESGGGLVQPGGSLRLSCAASGITFSRSVMGWFRQAPGKLRELVAGITSDDNTDYADSVKGRFTISRDNSKNTLYLQMNSLRAEDTAVYYCNILPDSRLGWGQGTLVTVSS	1 (yes)
antibody 18-hu1 (antibody, V domains shown) VH: EVQLVESGGGLVQPGGSLRLSCAASGIRFSIANMGWYRQAPGKLHEMVSGITSDGFTNYADSVKGRFTISRDNSKNTLYLQMNSLRAEDTAVYYCAKFPTRHYWGQGTLVTVSS	0 (no)
antibody 10 (antibody, V domains shown, expressed in CHO cells; also called chimeric antibody 10) VH: QVQLVESGGGLVQPGGSLTLSCAVSGITFSRSVMGWFRQAPGKLRELVAGITSDDNTDYADSVKGRFTISRDNAKNTVYLQMNSLKPEDTAVYYCNILPDSRLGWGQGTQVTVSS	1 (yes)
antibody 18-hu2 (antibody, V domains shown) VH: EVQLVESGGGLVQPGGSLRLSCAASGIRFSIANMGWYRQAPGKLHEMVAGITSDGFTNYADSVKGRFTISRDNSKNTLYLQMNSLRAEDTAVYYCAKFPTRHYWGQGTLVTVSS	0 (no)
